system-under-test: FKBP52 (Homo sapiens, UniProt Q02790)
Sequence (Q02790 1-459): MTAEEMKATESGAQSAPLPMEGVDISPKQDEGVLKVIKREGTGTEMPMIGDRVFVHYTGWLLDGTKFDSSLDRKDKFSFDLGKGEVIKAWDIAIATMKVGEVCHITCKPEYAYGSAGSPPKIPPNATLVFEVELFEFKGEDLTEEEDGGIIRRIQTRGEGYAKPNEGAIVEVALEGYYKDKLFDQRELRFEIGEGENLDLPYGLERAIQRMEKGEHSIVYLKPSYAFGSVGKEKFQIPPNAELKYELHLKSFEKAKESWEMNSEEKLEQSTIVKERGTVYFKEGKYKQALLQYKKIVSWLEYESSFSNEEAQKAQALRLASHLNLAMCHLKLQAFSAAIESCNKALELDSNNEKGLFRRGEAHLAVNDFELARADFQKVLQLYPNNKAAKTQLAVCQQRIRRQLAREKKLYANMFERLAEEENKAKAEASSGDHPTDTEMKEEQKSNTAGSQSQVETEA
Lab note: cut-off is 20 nM. Strictly less in Ki is 1. Exactly 20 nM or more is 0.

C=C[C@H]1CN([C@@H](C)CO)C(=O)[C@@H]2CCC[C@H]1N2S(=O)(=O)c1cc(Cl)cc(Cl)c1 [20b]: 0
C=C[C@H]1CN([C@H](C)C(=O)O)C(=O)[C@@H]2CCC[C@H]1N2S(=O)(=O)c1cc(Cl)cc(Cl)c1 [21c]: 0
C=C[C@H]1CN([C@@H](C)C(=O)O)C(=O)[C@@H]2CCC[C@H]1N2S(=O)(=O)c1cc(Cl)cc(Cl)c1 [21b]: 0
O=C1[C@@H]2CCC[C@H]([C@@H](CO)CN1Cc1ccccn1)N2S(=O)(=O)c1cc(Cl)cc(Cl)c1 [23a]: 1
C[C@@H](c1ccccn1)N1C[C@H](CO)[C@H]2CCC[C@@H](C1=O)N2S(=O)(=O)c1cc(Cl)cc(Cl)c1 [23b]: 1

Task item: Dear reviewer, please state whether C=C[C@H]1CN([C@H](C)c2ccccn2)C(=O)[C@@H]2CCC[C@H]1N2S(=O)(=O)c1ccc2ncsc2c1 has Ki strictly beneath 20 nM.
Reply: 0

Task item: Dear reviewer, please state whether C=C[C@H]1CN(CCOC)C(=O)[C@@H]2CCC[C@H]1N2S(=O)(=O)c1cc(Cl)cc(Cl)c1 [22a] has Ki strictly beneath 20 nM.
Reply: 0

Task item: Dear reviewer, please state whether O=C1[C@@H]2CCC[C@H]([C@@H](CO)CN1Cc1ccccn1)N2S(=O)(=O)c1ccc2ncsc2c1 [25a] has Ki strictly beneath 20 nM.
Reply: 0

Task item: Dear reviewer, please state whether C=C[C@H]1CN([C@@H](C)c2ccccn2)C(=O)[C@@H]2CCC[C@H]1N2S(=O)(=O)c1cc(Cl)cc(Cl)c1 has Ki strictly beneath 20 nM.
Reply: 1

Task item: Dear reviewer, please state whether COC[C@H]1CN([C@@H](C)c2ccccn2)C(=O)[C@@H]2CCC[C@H]1N2S(=O)(=O)c1cc(Cl)cc(Cl)c1 [24b] has Ki strictly beneath 20 nM.
Reply: 1

Task item: Dear reviewer, please state whether C=C[C@H]1CN(CCO)C(=O)[C@@H]2CCC[C@H]1N2S(=O)(=O)c1cc(Cl)cc(Cl)c1 [20a] has Ki strictly beneath 20 nM.
Reply: 0

Task item: Dear reviewer, please state whether C=C[C@H]1CN(Cc2ccccn2)C(=O)[C@@H]2CCC[C@H]1N2S(=O)(=O)c1ccc2ncsc2c1 has Ki strictly beneath 20 nM.
Reply: 0

Task item: Dear reviewer, please state whether C=C[C@H]1CN(Cc2ccccn2)C(=O)[C@@H]2CCC[C@H]1N2S(=O)(=O)c1cc(Cl)cc(Cl)c1 has Ki strictly beneath 20 nM.
Reply: 0

Task item: Dear reviewer, please state whether COC[C@H]1CN(Cc2ccccn2)C(=O)[C@@H]2CCC[C@H]1N2S(=O)(=O)c1cc(Cl)cc(Cl)c1 [24a] has Ki strictly beneath 20 nM.
Reply: 1

Task item: Dear reviewer, please state whether C=C[C@H]1CN([C@H](C)CO)C(=O)[C@@H]2CCC[C@H]1N2S(=O)(=O)c1cc(Cl)cc(Cl)c1 [20c] has Ki strictly beneath 20 nM.
Reply: 0
